Target: Growth hormone secretagogue receptor type 1 (Homo sapiens)
Sequence (Q92847 whole entry): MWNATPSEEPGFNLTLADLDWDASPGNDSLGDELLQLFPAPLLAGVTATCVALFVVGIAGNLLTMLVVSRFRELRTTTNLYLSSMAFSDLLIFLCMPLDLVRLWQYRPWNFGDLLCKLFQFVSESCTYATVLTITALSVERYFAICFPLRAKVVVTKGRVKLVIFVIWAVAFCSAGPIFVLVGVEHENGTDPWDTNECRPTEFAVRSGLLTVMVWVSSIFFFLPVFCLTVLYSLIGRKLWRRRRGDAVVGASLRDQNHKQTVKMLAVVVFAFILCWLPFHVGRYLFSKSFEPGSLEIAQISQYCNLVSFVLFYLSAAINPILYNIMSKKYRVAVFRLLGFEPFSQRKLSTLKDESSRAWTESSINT
Test: Antagonist activity at human GHSR1a receptor assessed as intracellular Ca2+ concentration by aequorin luminescent assay
Parameter Measured: IC50 (nM)

Structure Smiles String	Unit Symbol	Test Value
CC(C)[C@H](C(=O)N1CCC(N[C@H](C)C2CCCCC2)CC1)N1CC(=O)Nc2ccc(Oc3ccccc3)cc2C1=O	nM	2.5
COc1ccccc1Oc1ccc2c(c1)C(=O)N([C@@H](C(=O)NC1CCN(Cc3ccccc3)CC1)C(C)C)CC(=O)N2	nM	26
O=C1CN(CC(=O)NC2CCN(Cc3ccccc3)CC2)C(=O)c2cc(Oc3ccccc3)ccc2N1	nM	314
CC(C)[C@H](C(=O)N1CCC(N[C@H](C)c2ccccc2)CC1)N1CC(=O)Nc2ccc(Oc3ccccc3)cc2C1=O	nM	2.5

(a) CC(C)[C@H](C[C@H]1CC[C@@H](NCC2CC2)CC1)N1CCCc2ccc(Oc3ccc(F)cc3F)cc2C1=O
(b) Cc1ccccc1Oc1ccc2c(c1)C(=O)N([C@@H](C(=O)NC1CCN(Cc3ccccc3)CC1)C(C)C)CC(=O)N2
**Query** Could you check which of a and b has a smaller value for IC50? Pick one and reply with its label.
**Result** a
